Task for the reader: assign each of the following compounds its reported phenotypically active.
System: A549-GM130-SQSTM1
measurementProtocol: phenotypically active (imaging signature differs from DMSO and reproducible) at any of 0.3-9 uM (binary (1 = active, 0 = inactive)); higher = active
conditionParameters: treatment time: 24 h
Where a name gives a salt, the structure may show the parent alone.

Challenge: Would you mind telling me what phenotypically active value was observed for COc1ccc(-c2noc(CSc3nnc(C)n3-c3ccc(OC)cc3)n2)cc1 ?
Response given: 0 (inactive)

Challenge: Please give the result for CCCCc1oc2ccc(NS(C)(=O)=O)cc2c1C(=O)c1ccc(OCCCN(CCCC)CCCC)cc1 too.
Response given: 1 (active)

Challenge: Also check CC(C)C(=O)Nc1ccc([N+](=O)[O-])c(C(F)(F)F)c1 [flutamide]
Response given: 0 (inactive)

Challenge: Same thing, different compound: CS(=O)(=O)OCCCCOS(C)(=O)=O
Response given: 0 (inactive)

Challenge: Try the compound Oc1cc(O)c2c(c1)O[C@H](c1ccc(O)c(O)c1)[C@@H](O)C2 [Epicatechin-(-)]
Response given: 0 (inactive)

Challenge: Repeat for the following compound: CN(C)CCc1c[nH]c2ccc(Cn3cncn3)cc12
Response given: 0 (inactive)

Challenge: Ok, now CC(=O)[C@H]1CC[C@H]2[C@@H]3C=CC4=CC(=O)CC[C@@]4(C)[C@@H]3CC[C@]12C
Response given: 0 (inactive)

Challenge: What do you have for CC(C)(C)c1cnc(CSc2cnc(NC(=O)C3CCNCC3)s2)o1 ?
Response given: 1 (active)

Challenge: Consider next the compound Cc1cc(Nc2ccc(NC(=O)c3ccc(Nc4ccnc5ccccc45)cc3)cc2)nc(N)n1 in the same way.
Response given: 1 (active)

Challenge: What about C/C(=N/NC(=N)N)c1ccc(NC(=O)Nc2ccc(/C(C)=N/NC(=N)N)cc2)cc1 ?
Response given: 1 (active)

Challenge: Next up: COc1ccccc1C(=O)Nc1cc2c(cc1N1CCCC1)n(C)c(=O)n2C
Response given: 1 (active)

Challenge: What do you have for Cc1cccc(C)c1OCC(C)N (stereo not given) ?
Response given: 0 (inactive)

Challenge: Entry NC(=O)Nc1cc(-c2cccc(F)c2)sc1C(=O)N[C@H]1CCCNC1 [AZD 7762 hydrochloride] please
Response given: 1 (active)

Challenge: Again, but for CCCNC(C)C(=O)Nc1c(C)csc1C(=O)OC (stereo not given)
Response given: 0 (inactive)

Challenge: // query: CC1=C(/C=C/C(C)=C\C=C\C(C)=C\C(=O)O)C(C)(C)CCC1
Response given: 1 (active)

Challenge: Next compound up: CCOCCn1c(N2CCCN(C)CC2)nc2ccccc21
Response given: 0 (inactive)

Challenge: Same thing, different compound: C=C(C)[C@@H]1CC[C@]2(CO)CC[C@]3(C)[C@H](CC[C@@H]4[C@@]5(C)CC[C@H](O)C(C)(C)[C@@H]5CC[C@]43C)[C@@H]12
Response given: 0 (inactive)

Challenge: Check CN1CCC(CN2c3ccccc3Sc3ccccc32)C1 (stereo not given) too.
Response given: 1 (active)

Challenge: Can you handle C=C1CC[C@H](O)C/C1=C\C=C1\CCC[C@]2(C)[C@@H]([C@H](C)/C=C/[C@H](C)C(C)C)CC[C@@H]12 next?
Response given: 1 (active)

Challenge: // query: COc1cc(C(=O)N2CCC(N3CCN(C)CC3)CC2)ccc1Nc1ncc2c(n1)N(C)c1ccccc1C(=O)N2C
Response given: 1 (active)

###

Tested on: HepG2-GM130-SQSTM1
measurementProtocol: phenotypically active (imaging signature differs from DMSO and reproducible) at any of 0.3-9 uM (binary (1 = active, 0 = inactive)); higher = active
conditionParameters: treatment time: 24 h
Structures can show the parent of a compound that is named as a salt.
Tick one outcome: active, inactive

Challenge: # fetch the recorded call for COc1cc2nc(N3CCN(C(=O)C4COc5ccccc5O4)CC3)nc(N)c2cc1OC (centres undefined) [doxazosin] here
Response given: active

Challenge: Param item: COc1cc2nc(N3CCN(C(=O)c4ccco4)CC3)nc(N)c2cc1OC [prazosin]
Response given: inactive

Challenge: Then C[N+](C)(CCCCCC[N+](C)(C)CCCN1C(=O)c2ccccc2C1=O)CCCN1C(=O)c2ccccc2C1=O [W-84 dibromide] ?
Response given: inactive

Challenge: Again, but for CC(C)C(=O)Nc1ncc(-c2cc(C(F)F)nn2-c2c(Cl)cccc2Cl)s1
Response given: inactive

Challenge: Also, C[C@H](NC(=O)c1sccc1OCc1ccc(Cl)cc1)c1ccccc1 please.
Response given: inactive

Challenge: Param item: Cc1ccc(NC2=CC(=O)c3sc(C)nc3C2=O)cc1 [Ryuvidine]
Response given: active

Challenge: Item: CCC(=O)N1CCOc2c(cc(-c3ccc(OC)c(OC)c3)cc2OC[C@H]2CCCN(C)C2)C1
Response given: inactive

Challenge: Quick one: CC1(C)CC(=O)C2=C(C1)NC(=S)NC2c1cccc(O)c1 (centres undefined) [Dimethylenastron]
Response given: active

Challenge: # iterate: Nc1cccc(-c2cc3c(Oc4cccc(O)c4)ncnc3[nH]2)c1
Response given: active

Challenge: Cool, now Cc1ccc(OCCSc2ncccn2)c(Br)c1 [ZLN 024 hydrochloride]
Response given: inactive

Challenge: Cool, now CN(CCOc1ccc(NS(C)(=O)=O)cc1)CCc1ccc(NS(C)(=O)=O)cc1 [dofetilide]
Response given: inactive

Challenge: Repeat with CN1CCN(C(=O)CN[C@H]2C[C@@H]2c2ccc(OCc3ccccc3)cc2)CC1 [RN 1 dihydrochloride]
Response given: active

Challenge: Now consider Fc1ccc(-c2c3cccc(C(F)(F)F)c3nn2Cc2ccc(F)cc2Cl)cc1 .
Response given: inactive

Challenge: And O=S(=O)(NCCCCCCc1ccccc1)c1cccc2c(Cl)cccc12 ?
Response given: inactive

###

System: HepG2-GM130-SQSTM1
measurementProtocol: phenotypically active (imaging signature differs from DMSO and reproducible) at any of 0.3-9 uM (binary (1 = active, 0 = inactive)); higher = active
conditionParameters: treatment time: 24 h
Counter-ions that a name gives are not always drawn.
Pick from Yes for active, No for inactive when you respond.

Challenge: I'd appreciate the recorded outcome for CO[C@@H]1[C@H](N(C)C(=O)c2ccccc2)C[C@H]2O[C@]1(C)n1c3ccccc3c3c4c(c5c6ccccc6n2c5c31)C(=O)NC4 from this test.
Response given: Yes

Challenge: What do you get for CC(C)(C)c1ccc(C(=O)Nc2cn3cc(-n4ccnc4)ccc3n2)cc1 ?
Response given: No

Challenge: Now consider CCOCCn1c(N2CCCN(C)CC2)nc2ccccc21 .
Response given: No

Challenge: Ok, now CC1(C)O[C@@H]2C[C@H]3[C@@H]4C[C@H](F)C5=CC(=O)C=C[C@]5(C)[C@@]4(F)[C@@H](O)C[C@]3(C)[C@]2(C(=O)CO)O1 [fluocinolone acetonide]
Response given: No

Challenge: Record: CN1C(=O)CC(c2ccccc2)C1=O (stereo not drawn) [phensuximide]
Response given: No

Challenge: What do we get for CC(C)C(=O)c1c(C(C)C)nn2ccccc12 ?
Response given: No

Challenge: Then CC1Cc2ccccc2N1NC(=O)c1ccc(Cl)c(S(N)(=O)=O)c1 (stereo not drawn) [indapamide] ?
Response given: No

Challenge: Cc1ccc(Nc2nnc(-c3ccc([N+](=O)[O-])cc3)o2)cc1Cl ?
Response given: No

Challenge: Also check Cc1ccc([N+](=O)[O-])cc1S(=O)(=O)N(C)C
Response given: No

Challenge: Same again, this time with Nc1ncn([C@@H]2O[C@H](CO)[C@@H](O)[C@H]2O)c(=O)n1
Response given: Yes

Challenge: Let us now turn to O=C(c1cccc(Br)c1)N1CCC(N2CCCC2)CC1 [UNC 926 hydrochloride]
Response given: No

Challenge: Field entry: CCCCCCCCCCCCC/C=C/[C@@H](O)[C@H](CO)N(C)C
Response given: Yes

Challenge: Would you kindly repeat that for Cc1cccc(C)c1OCC(=O)N[C@@H](Cc1ccccc1)[C@@H](O)C[C@H](Cc1ccccc1)NC(=O)[C@H](C(C)C)N1CCCNC1=O ?
Response given: No

Challenge: Do the same for CCCCC1C(=O)N(c2ccccc2)N(c2ccc(O)cc2)C1=O (stereo not drawn) please
Response given: No

Challenge: Try this compound next: O=C(O)CCN(O)C(=O)CCCCCCCCC1CC1
Response given: No

Challenge: Repeat with CC1=NN(c2ccc(C(=O)O)cc2)C(=O)/C1=C\c1ccc(-c2cc(C)c(C)cc2[N+](=O)[O-])o1
Response given: No

Challenge: Let us now turn to CCC(C)(C)C(=O)O[C@H]1C[C@@H](C)C=C2C=C[C@H](C)[C@H](CC[C@@H]3C[C@@H](O)CC(=O)O3)[C@H]21
Response given: Yes

Challenge: Entry to check: CCOc1nc(NC(=O)Cc2cc(OC)ccc2OC)cc(N)c1C#N
Response given: No

Challenge: Would you mind doing Nc1ncnc2c1c(-c1ccc(Cl)cc1)nn2-c1cccc(-c2cnnn2Cc2cccc(-c3ccccc3)c2)c1 as well?
Response given: No

Challenge: Another: O=C1N[C@@H]2[C@@H](O)[C@@H](O)[C@H](O)[C@@H](CO)N2C1=O
Response given: No

Challenge: Then this compound: O=C(O)C[C@H](O)C[C@H](O)/C=C/c1c(C2CC2)nc2ccccc2c1-c1ccc(F)cc1
Response given: Yes

Challenge: // repeat for NC(=O)OCC(COC(N)=O)c1ccccc1 [felbamate] and report
Response given: No

Challenge: Request: C[C@]1(OC(=O)/C=C/c2ccccc2)C[C@@H](O)[C@]2(O)C=CO[C@@H](O[C@@H]3O[C@H](CO)[C@@H](O)[C@H](O)[C@H]3O)[C@@H]21 [Harpagoside]
Response given: No

Challenge: // repeat for CCCc1nn(C)c2c(=O)[nH]c(-c3cc(S(=O)(=O)N4CCN(C)CC4)ccc3OCC)nc12 [Sildenafil citrate] and report
Response given: No

Challenge: And what about the compound COc1ccc(-c2cnc(-c3cccc4c3-c3ccccc3C4=O)o2)cc1 ?
Response given: No

Challenge: Next compound up: C#C[C@]1(O)CC[C@H]2[C@@H]3CCc4cc(OC5CCCC5)ccc4[C@H]3CC[C@@]21C
Response given: No

Challenge: Param item: CCN(CC)CCNc1ccc(CO)c2sc3ccccc3c(=O)c12
Response given: Yes

Challenge: Moving on to C[C@@H](Oc1cc(-n2cnc3ccc(CN4CCN(C)CC4)cc32)sc1C(N)=O)c1ccccc1C(F)(F)F
Response given: Yes
